Data provenance is patent US20250320281A1.

# target: HIV-1 APV-6 Env (pseudovirus) (HIV-1 isolate APV-6)
# procedure-summary: cell-based or functional assay
Recorded IC50 (µg/mL), pseudovirus neutralization values for a group of binders are listed next.
Only the number, expressed in µg/mL, is required.

Some solved cases for reference:
1495_C14 (PGC14) (antibody, human IgG1, lambda, V domains shown) VH: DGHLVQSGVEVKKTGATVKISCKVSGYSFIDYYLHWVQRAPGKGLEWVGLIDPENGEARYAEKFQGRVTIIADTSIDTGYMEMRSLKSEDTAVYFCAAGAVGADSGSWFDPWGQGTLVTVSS VL: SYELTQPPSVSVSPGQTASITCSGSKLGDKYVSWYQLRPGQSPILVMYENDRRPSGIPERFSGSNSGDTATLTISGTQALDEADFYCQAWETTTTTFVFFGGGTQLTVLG : 7.41
1496_C09 (PG9) (TCN-109) (antibody, V domains shown) VH: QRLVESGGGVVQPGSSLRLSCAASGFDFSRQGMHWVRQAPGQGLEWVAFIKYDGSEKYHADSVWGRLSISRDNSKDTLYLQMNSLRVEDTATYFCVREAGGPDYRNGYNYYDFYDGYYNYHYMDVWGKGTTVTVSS VL: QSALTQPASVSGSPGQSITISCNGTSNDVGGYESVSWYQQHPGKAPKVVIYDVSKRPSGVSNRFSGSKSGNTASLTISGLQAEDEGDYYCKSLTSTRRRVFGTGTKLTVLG : 0.09
1456_P20 (PG20) (antibody, human IgG1, kappa, V domains shown) VH: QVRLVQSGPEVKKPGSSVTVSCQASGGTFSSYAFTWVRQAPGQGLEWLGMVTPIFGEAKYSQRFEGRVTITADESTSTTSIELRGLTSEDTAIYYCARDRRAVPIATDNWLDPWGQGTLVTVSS VL: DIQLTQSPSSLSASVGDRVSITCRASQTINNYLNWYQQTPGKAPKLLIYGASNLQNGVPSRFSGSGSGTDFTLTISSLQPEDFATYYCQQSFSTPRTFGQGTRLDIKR : 25.8

Query (binder): 1443_C16 (PG16) (TCN-116) (antibody, V domains shown) VH: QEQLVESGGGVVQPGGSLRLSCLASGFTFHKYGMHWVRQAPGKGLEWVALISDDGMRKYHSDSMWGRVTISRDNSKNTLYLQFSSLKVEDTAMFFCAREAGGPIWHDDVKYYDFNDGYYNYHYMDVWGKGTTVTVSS VL: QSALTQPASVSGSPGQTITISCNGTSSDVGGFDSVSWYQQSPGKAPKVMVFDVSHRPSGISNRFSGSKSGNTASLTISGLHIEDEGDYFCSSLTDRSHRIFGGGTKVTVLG ; field requested: IC50 (µg/mL), pseudovirus neutralization
0.08
